Measured damage to plant, Nasturtium officinale (NAAOF), listed per entry.
# System: Nasturtium officinale (NAAOF)
# Protocol Description: Example B1 herbicidal action, post-emergence, 96-cell seed trays, climatic chamber
# Type: in vivo
# Design: scale not given here
# Run Conditions: Application post-emergence, 1000 mg/l spray equivalent to 1000 g/ha, evaluated after 9 days (100=total damage to plant, 0=no damage to plant)
Observed Property: damage to plant, Nasturtium officinale (NAAOF)

[
  {
    "Structure Smiles String": "CC(C)C(=O)Oc1c(-c2cccc(C(F)(F)F)c2Cl)c(=O)n(CC2CC2)c2nccnc12",
    "Measured Result": 8
  },
  {
    "Structure Smiles String": "CCC(=O)Oc1c(-c2c(Cl)cccc2Cl)c(=O)n(CC)c2nccnc12",
    "Measured Result": 8
  },
  {
    "Structure Smiles String": "O=c1[nH]c2nccnc2c(O)c1-c1c(Cl)cc(C(F)(F)F)cc1Cl",
    "Measured Result": 7
  },
  {
    "Structure Smiles String": "COCCn1c(=O)c(-c2c(F)ccc(F)c2Cl)c(OC(=O)C(C)C)c2nccnc21",
    "Measured Result": 6
  },
  {
    "Structure Smiles String": "CC(C)(C)C(=O)Oc1c(-c2c(F)ccc(F)c2Cl)c(=O)n(CC2CC2)c2nccnc12",
    "Measured Result": 0
  },
  {
    "Structure Smiles String": "CCC(=O)Oc1c(-c2c(Cl)cccc2Cl)c(=O)n(C)c2nccnc12",
    "Measured Result": 8
  },
  {
    "Structure Smiles String": "CC(C)=CC(=O)Oc1c(-c2c(F)ccc(F)c2Cl)c(=O)n(C)c2nccnc12",
    "Measured Result": 6
  },
  {
    "Structure Smiles String": "O=c1[nH]c2nccnc2c(O)c1-c1ccc2ccccc2c1",
    "Measured Result": 0
  },
  {
    "Structure Smiles String": "CCn1c(=O)c(-c2c(F)ccc(C)c2Cl)c(OC(=O)C(C)C)c2nccnc21",
    "Measured Result": 6
  },
  {
    "Structure Smiles String": "Cc1ccc(Cl)c(-c2c(OC(=O)C(C)(C)C)c3nccnc3[nH]c2=O)c1F",
    "Measured Result": 0
  },
  {
    "Structure Smiles String": "CCCC(=O)Oc1c(-c2c(Cl)cccc2Cl)c(=O)n(C)c2nccnc12",
    "Measured Result": 7
  },
  {
    "Structure Smiles String": "C=CCn1c(=O)c(-c2c(Cl)cccc2Cl)c(OC(=O)CC)c2nccnc21",
    "Measured Result": 8
  },
  {
    "Structure Smiles String": "CCCC(CCC)C(=O)Oc1c(-c2c(F)ccc(F)c2Cl)c(=O)n(C)c2nccnc12",
    "Measured Result": 3
  },
  {
    "Structure Smiles String": "CCC(=O)Oc1c(-c2ccc(F)cc2Cl)c(=O)[nH]c2nccnc12",
    "Measured Result": 0
  },
  {
    "Structure Smiles String": "CCn1c(=O)c(-c2cc(C(F)(F)F)ccc2Cl)c(OC(=O)C(C)C)c2nccnc21",
    "Measured Result": 7
  },
  {
    "Structure Smiles String": "CC(C)C(=O)Oc1c(-c2cc(C(F)(F)F)ccc2Cl)c(=O)n(C)c2nccnc12",
    "Measured Result": 7
  },
  {
    "Structure Smiles String": "Cn1c(=O)c(-c2c(F)ccc(F)c2Cl)c(OC(=O)c2ccc([N+](=O)[O-])cc2)c2nccnc21",
    "Measured Result": 7
  }
]
